Procedure summary: in vitro
Condition details: rat, microsomes, pH 7.4
# met = CLint scaled below 400 mL/min/kg (exclusive); not met = CLint scaled at/above 400 mL/min/kg

Compound | Assigned category
O=C(N[C@@H]1CCN(c2c(C(=O)N3CCN4CCOCC4C3)cc(Br)cc2C(F)(F)F)C1)c1cc(=O)[nH]c2c(F)cccc12 (stereo partly shown) | met
COCCN(C)C(=O)c1cc(Br)cc(C(F)(F)F)c1N1CC[C@@H](NC(=O)c2cc(=O)[nH]c3c(F)cccc23)C1 | not met
O=C(N[C@@H]1CCN(c2c(OC(F)(F)F)cc(Cl)cc2C(=O)N2CCOCC2)C1)c1cc(=O)[nH]c2c(F)cccc12 | met
O=C(N[C@@H]1CCN(c2c(C(=O)N3CCOCC3)cc(Br)cc2C(F)(F)F)C1)c1c(F)c(=O)[nH]c2c(F)c(F)ccc12 | met
N#Cc1cc(C(=O)N2CCOCC2)c(N2CC[C@@H](NC(=O)c3cc(=O)[nH]c4c(F)c(F)ccc34)C2)c(C(F)(F)F)c1 | met

Consider the record given below.
Would you kindly verify if CLint scaled of CN1CCN(C(=O)c2cc(C#N)cc(C3CC3)c2N2CC[C@@H](NC(=O)c3cc(=O)[nH]c4c(F)cccc34)C2)CC1 is strictly less than 400 mL/min/kg? met

###

// reported CLint scaled for each item listed
Procedure summary: in vitro
Condition details: human, microsomes, pH 7.4

A selection of reference data follows.
Structure as smiles | Readout name | Recorded result
N#Cc1cc(C(=O)N2CCOCC2)c(N2C[C@H](NC(=O)c3cc(=O)[nH]c4c(F)c(F)ccc34)CC2=O)c(C(F)(F)F)c1 | CLint scaled | < 26.7 mL/min/kg
N#Cc1cc(C(=O)N2CCOCC2)c(N2CC[C@@H](NC(=O)c3cc(=O)[nH]c4c(F)c(F)ccc34)C2)c(C(F)(F)F)c1 | CLint scaled | < 35 mL/min/kg

Let's switch to this molecule now.
Give the measured CLint scaled of N#Cc1cc(C(=O)N2CCOCC2)c(N2CC[C@H](NC(=O)c3cc(=O)[nH]c4c(F)cccc34)C2)c(C(F)(F)F)c1 . < 25 mL/min/kg

###

Test system: SARS-CoV-2 (strain USA-WA1/2020)
Procedure summary: microbe, parasite or virus in culture
Format: cell-based
Condition details: Severe acute respiratory syndrome coronavirus 2; HeLa-ACE2 cells; read-out: Antiviral CoV-2 EC50
Readout name: EC50 (nM)
Numbers only; they are read as nM.

Compound | EC50, nM
N#Cc1cc(C(=O)N2CCOCC2)c(N2CC[C@@H](NC(=O)c3c(F)c(=O)[nH]c4c(F)cccc34)C2)c(C(F)F)c1 [Compound 39] | 18.9
CN1CCN(C(=O)c2cc(Br)cc(C(F)(F)F)c2N2CC[C@@H](NC(=O)c3cc(=O)[nH]c4c(F)cccc34)C2)CC1 [Compound 63] | 12.7
C[C@@H]1C[C@@H](NC(=O)c2cc(=O)[nH]c3c(F)c(F)ccc23)CN1c1c(C(=O)N2CCOCC2)cc(C#N)cc1C(F)(F)F [Compound 31] | 8.8

Let's switch to this compound now.
Give the measured EC50 of Cc1cc(C(=O)N2CCOCC2)c(N2CC[C@@H](NC(=O)c3cc(=O)[nH]c4c(F)cccc34)C2)c(C2CC2)c1 [Compound 45] . 18.6
